- experiment: Lung-tissue pharmacokinetics of PG–OJ components in tumor-bearing mice (UPLC–MS/MS)
- Format: in vivo, BALB/c nude male mice
- condition summary: male, BALB/c nude, mouse, in vivo, po
reported metric: half-life (h)
Answer format: numeric, h implied, no suffix.

Identify measured half-life associated with CC(C)=CCC[C@](C)(O[C@@H]1O[C@H](CO)[C@@H](O)[C@H](O)[C@H]1O)[C@H]1CC[C@]2(C)[C@@H]1[C@H](O)C[C@@H]1[C@@]3(C)CC[C@H](O[C@@H]4O[C@H](CO)[C@@H](O)[C@H](O)[C@H]4O)C(C)(C)[C@@H]3CC[C@]12C [Ginsenoside F2] 5.83

Identify measured half-life associated with CC(C)=CCC[C@](C)(O[C@@H]1O[C@H](CO)[C@@H](O)[C@H](O)[C@H]1O)[C@H]1CC[C@]2(C)[C@@H]1[C@H](O)C[C@@H]1[C@@]3(C)CC[C@H](O)C(C)(C)[C@@H]3[C@@H](O)C[C@]12C [Ginsenoside F1] 2.24

Identify measured half-life associated with CC(C)=CCC[C@](C)(O)[C@H]1CC[C@]2(C)[C@@H]1[C@H](O)C[C@@H]1[C@@]3(C)CC[C@H](O)C(C)(C)[C@@H]3[C@@H](O[C@@H]3O[C@H](CO)[C@@H](O)[C@H](O)[C@H]3O[C@@H]3O[C@H](CO)[C@@H](O)[C@H](O)[C@H]3O)C[C@]12C [Ginsenoside Rf] 1.28

Identify measured half-life associated with CC(C)=CCC[C@](C)(O)[C@H]1CC[C@]2(C)[C@@H]1[C@H](O)C[C@@H]1[C@@]3(C)CC[C@H](O)C(C)(C)[C@@H]3[C@@H](O[C@@H]3O[C@H](CO)[C@@H](O)[C@H](O)[C@H]3O[C@@H]3O[C@@H](C)[C@H](O)[C@@H](O)[C@H]3O)C[C@]12C [Ginsenoside Rg2] 3.58

====

- experiment: Lung-tissue pharmacokinetics of PG–OJ components in tumor-bearing mice (UPLC–MS/MS)
- Assay type: in vivo, BALB/c nude male mice
- condition summary: lung tissue, A549 tumor-bearing mice, intragastric PG–OJ extract 10.2 g/kg (6.8 g/kg elsewhere in the source), mean ± SD, n = 6
reported metric: AUC(0–t) (ng·min/g)
Answer format: numeric, ng·min/g implied, no suffix.

Identify measured AUC(0–t) associated with CC(C)=CCC[C@](C)(O[C@@H]1O[C@H](CO)[C@@H](O)[C@H](O)[C@H]1O)[C@H]1CC[C@]2(C)[C@@H]1[C@H](O)C[C@@H]1[C@@]3(C)CC[C@H](O)C(C)(C)[C@@H]3[C@@H](O[C@@H]3O[C@H](CO)[C@@H](O)[C@H](O)[C@H]3O[C@@H]3O[C@@H](C)[C@H](O)[C@@H](O)[C@H]3O)C[C@]12C [Ginsenoside Re] 3815.68

Identify measured AUC(0–t) associated with CC(C)=CCC[C@](C)(O)[C@H]1CC[C@]2(C)[C@@H]1[C@H](O)C[C@@H]1[C@@]3(C)CC[C@H](O)C(C)(C)[C@@H]3[C@@H](O[C@@H]3O[C@H](CO)[C@@H](O)[C@H](O)[C@H]3O)C[C@]12C [Ginsenoside Rh1] 1303.44

====

- experiment: Lung-tissue pharmacokinetics of PG–OJ components in tumor-bearing mice (UPLC–MS/MS)
- Format: in vivo, BALB/c nude male mice
- condition summary: male, BALB/c nude, mouse, po; lung tissue, A549 tumor-bearing mice, intragastric PG–OJ extract 10.2 g/kg (6.8 g/kg elsewhere in the source), mean ± SD, n = 6; read-out: MRT(0–t) (converted)
reported metric: MRT last (h)
Answer format: numeric, h implied, no suffix.

Identify measured MRT last associated with CC(C)=CCC[C@](C)(O[C@@H]1O[C@H](CO[C@@H]2O[C@@H](CO)[C@H](O)[C@H]2O)[C@@H](O)[C@H](O)[C@H]1O)[C@H]1CC[C@]2(C)[C@@H]1[C@H](O)C[C@@H]1[C@@]3(C)CC[C@H](O[C@@H]4O[C@H](CO)[C@@H](O)[C@H](O)[C@H]4O[C@@H]4O[C@H](CO)[C@@H](O)[C@H](O)[C@H]4O)C(C)(C)[C@@H]3CC[C@]12C [Ginsenoside Rc] 11.6

Identify measured MRT last associated with CC(C)=CC/C=C(\C)[C@H]1CC[C@]2(C)[C@@H]1[C@H](O)C[C@@H]1[C@@]3(C)CC[C@H](O[C@@H]4O[C@H](CO)[C@@H](O)[C@H](O)[C@H]4O[C@@H]4O[C@H](CO)[C@@H](O)[C@H](O)[C@H]4O)C(C)(C)[C@@H]3CC[C@]12C [Ginsenoside Rg5] 3.07

Identify measured MRT last associated with CC(C)=CCC[C@](C)(O[C@@H]1O[C@H](CO)[C@@H](O)[C@H](O)[C@H]1O)[C@H]1CC[C@]2(C)[C@@H]1[C@H](O)C[C@@H]1[C@@]3(C)CC[C@H](O)C(C)(C)[C@@H]3[C@@H](O[C@@H]3O[C@H](CO)[C@@H](O)[C@H](O)[C@H]3O[C@@H]3O[C@@H](C)[C@H](O)[C@@H](O)[C@H]3O)C[C@]12C [Ginsenoside Re] 1.57

Identify measured MRT last associated with CC(C)=CCC[C@](C)(O[C@@H]1O[C@H](CO)[C@@H](O)[C@H](O)[C@H]1O)[C@H]1CC[C@]2(C)[C@@H]1[C@H](O)C[C@@H]1[C@@]3(C)CC[C@H](O)C(C)(C)[C@@H]3[C@@H](O[C@@H]3O[C@H](CO)[C@@H](O)[C@H](O)[C@H]3O)C[C@]12C [Ginsenoside Rg1] 2.26

Identify measured MRT last associated with CC(C)=CCC[C@](C)(O[C@@H]1O[C@H](CO[C@@H]2OC[C@H](O)[C@H](O)[C@H]2O)[C@@H](O)[C@H](O)[C@H]1O)[C@H]1CC[C@]2(C)[C@@H]1[C@H](O)C[C@@H]1[C@@]3(C)CC[C@H](O[C@@H]4O[C@H](CO)[C@@H](O)[C@H](O)[C@H]4O[C@@H]4O[C@H](CO)[C@@H](O)[C@H](O)[C@H]4O)C(C)(C)[C@@H]3CC[C@]12C [Ginsenoside Rb2] 11.9

Identify measured MRT last associated with CC(C)=CCC[C@](C)(O[C@@H]1O[C@H](CO[C@@H]2OC[C@@H](O)[C@H](O)[C@H]2O)[C@@H](O)[C@H](O)[C@H]1O)[C@H]1CC[C@]2(C)[C@@H]1[C@H](O)C[C@@H]1[C@@]3(C)CC[C@H](O[C@@H]4O[C@H](CO)[C@@H](O)[C@H](O)[C@H]4O[C@@H]4O[C@H](CO)[C@@H](O)[C@H](O)[C@H]4O)C(C)(C)[C@@H]3CC[C@]12C [Ginsenoside Rb3] 13.8

Identify measured MRT last associated with CC(C)=CCC[C@](C)(O[C@@H]1O[C@H](CO[C@@H]2O[C@H](CO)[C@@H](O)[C@H](O)[C@H]2O)[C@@H](O)[C@H](O)[C@H]1O)[C@H]1CC[C@]2(C)[C@@H]1[C@H](O)C[C@@H]1[C@@]3(C)CC[C@H](O[C@@H]4O[C@H](CO)[C@@H](O)[C@H](O)[C@H]4O[C@@H]4O[C@H](CO)[C@@H](O)[C@H](O)[C@H]4O)C(C)(C)[C@@H]3CC[C@]12C [Ginsenoside Rb1] 11.5
